# Kd per record follows
Molecular target: T1, Cyno His-GDF15: HIS-tagged cyno GDF15 (cynomolgus, UniProt G7PWZ3 197-308, limits assumed)
T1 construct: not shown: His tag
T1 sequence (looked up): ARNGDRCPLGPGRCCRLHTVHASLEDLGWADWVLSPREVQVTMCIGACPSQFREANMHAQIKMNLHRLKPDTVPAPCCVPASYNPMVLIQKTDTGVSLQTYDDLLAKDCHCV
Assay: Biacore SPR, IgG captured via anti-human Fc, GDF15 in flow
Express it in nM; write the number only.

Reference set, count: 3
Input line: Form field: reported Kd of ABGDF15-D (antibody, human IgG1, lambda, V domains shown, captured through anti-human Fc in the Biacore assay) VH: EVQLVQSGAEVKKPGESLKISCKGSGYSFTSYWIGWVRQMPGKGLEWMGVIDPDGSYTIYSPSFQGQVTISADKSISTAYLQWSSLKASDTAMYYCARYGRYGTYFDYWGQGTLVTVSS VL: QSVLTQPPSVSGAPGQRVTISCSGSSSNIGVLYVNWYQQLPGTAPKLLIYSNDNRPSGVPDRFSGSKSGTSASLAITGLQAEDEADYYCQSWDSSSNYVFGGGTKLTVLG
Output line: 0.0141

Input line: Quick one: Kd for ABGDF15-F (antibody, human IgG1, lambda, V domains shown, captured through anti-human Fc in the Biacore assay) VH: EVQLVQSGAEVKKPGESLKISCKGSGYSFTSYWIGWVRQMPGKGLEWMGVIDPSGSYTIYSPSFQGQVTISADKSISTAYLQWSSLKASDTAMYYCARYGRYGTYFDYWGQGTLVTVSS VL: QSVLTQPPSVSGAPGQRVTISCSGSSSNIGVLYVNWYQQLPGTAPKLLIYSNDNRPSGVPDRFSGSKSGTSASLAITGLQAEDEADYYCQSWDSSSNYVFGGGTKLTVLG ?
Output line: 0.035

Input line: Fill in: Kd of ABGDF15-A (antibody, human IgG1, kappa, V domains shown, captured through anti-human Fc in the Biacore assay) VH: EVQLVQSGAEVKKPGESLKISCKGSGYSFTDYWISWVRQMPGKGLEWMGIIDPSGSYTIYSPSFQGQVTISADKSISTAYLQWSSLKASDTAMYYCARVSYYGGYFDIWGQGTLVTVSS VL: DIQMTQSPSSLSASVGDRVTITCRASQSISNNLNWYQQKPGKAPKLLIYAASNLQSGVPSRFSGSGSGTDFTLTISSLQPEDFATYYCFQLDHSPFTFGQGTKVEIKR is ___
Output line: 0.0134

Next binder, please.
Input line: Give the measured Kd of ABGDF15-E (antibody, human IgG1, lambda, V domains shown, captured through anti-human Fc in the Biacore assay) VH: EVQLVQSGAEVKKPGESLKISCKGSGYSFTSYWIGWVRQMPGKGLEWMGVIDPGGSYTIYSPSFQGQVTISADKSISTAYLQWSSLKASDTAMYYCARYGRYGTYFDYWGQGTLVTVSS VL: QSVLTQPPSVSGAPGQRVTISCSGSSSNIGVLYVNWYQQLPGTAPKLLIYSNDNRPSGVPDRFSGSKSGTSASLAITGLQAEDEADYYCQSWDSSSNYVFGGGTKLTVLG .
Output line: 0.0303

Reference for the values: patent US20190135908A1
